Measured values drawn from ChEMBL document CHEMBL1153278 for this set.

- TEST_SYSTEM: Cytochrome P450 1A2 (Homo sapiens)
- Sequence (P05177 whole entry): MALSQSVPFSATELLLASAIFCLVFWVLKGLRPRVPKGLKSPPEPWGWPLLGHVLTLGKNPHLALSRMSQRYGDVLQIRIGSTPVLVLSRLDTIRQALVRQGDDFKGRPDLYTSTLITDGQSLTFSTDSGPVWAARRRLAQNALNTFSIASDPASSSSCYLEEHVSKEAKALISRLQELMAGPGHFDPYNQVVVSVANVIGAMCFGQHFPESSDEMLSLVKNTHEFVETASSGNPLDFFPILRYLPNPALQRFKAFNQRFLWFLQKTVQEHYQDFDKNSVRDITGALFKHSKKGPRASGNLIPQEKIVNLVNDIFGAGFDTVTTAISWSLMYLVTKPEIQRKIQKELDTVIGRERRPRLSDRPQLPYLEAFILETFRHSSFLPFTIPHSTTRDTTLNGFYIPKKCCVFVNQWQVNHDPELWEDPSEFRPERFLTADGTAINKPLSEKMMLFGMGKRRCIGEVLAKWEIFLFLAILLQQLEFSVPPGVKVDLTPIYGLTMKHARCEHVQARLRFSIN
pIC50: −log10 of the molar value.
VALUE_KIND: pIC50

// sample `CN(CCC(=O)N1CCN(c2ccc(F)c(F)c2)CC1)CCC1c2ccccc2Oc2ccccc21` , its pIC50 was < 5.00

====

- TEST_SYSTEM: Somatostatin receptor type 3 (Homo sapiens, UniProt P32745)
- Sequence (P32745 whole entry): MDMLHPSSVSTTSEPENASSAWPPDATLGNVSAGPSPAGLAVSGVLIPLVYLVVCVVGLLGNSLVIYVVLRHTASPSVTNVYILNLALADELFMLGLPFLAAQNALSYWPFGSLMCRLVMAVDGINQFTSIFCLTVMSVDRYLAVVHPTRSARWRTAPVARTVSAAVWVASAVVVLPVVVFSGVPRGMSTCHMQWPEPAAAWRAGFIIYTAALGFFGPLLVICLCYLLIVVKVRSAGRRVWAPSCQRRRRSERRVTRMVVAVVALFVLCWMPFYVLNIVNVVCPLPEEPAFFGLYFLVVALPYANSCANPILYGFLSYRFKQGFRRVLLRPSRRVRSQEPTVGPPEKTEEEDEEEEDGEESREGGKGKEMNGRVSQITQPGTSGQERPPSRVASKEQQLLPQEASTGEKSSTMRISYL
VALUE_KIND: pKd
API: returns pKd as number; meaning -log10 of concentration in mol/L.

pKd on Somatostatin receptor type 3 (Homo sapiens, UniProt P32745) for `CN(CCC(=O)N1CCN(c2ccc(F)c(F)c2)CC1)CCC1c2ccccc2Oc2ccccc21` is 5.55

====

- TEST_SYSTEM: Somatostatin receptor type 4 (Homo sapiens, UniProt P31391)
- Sequence (P31391 whole entry): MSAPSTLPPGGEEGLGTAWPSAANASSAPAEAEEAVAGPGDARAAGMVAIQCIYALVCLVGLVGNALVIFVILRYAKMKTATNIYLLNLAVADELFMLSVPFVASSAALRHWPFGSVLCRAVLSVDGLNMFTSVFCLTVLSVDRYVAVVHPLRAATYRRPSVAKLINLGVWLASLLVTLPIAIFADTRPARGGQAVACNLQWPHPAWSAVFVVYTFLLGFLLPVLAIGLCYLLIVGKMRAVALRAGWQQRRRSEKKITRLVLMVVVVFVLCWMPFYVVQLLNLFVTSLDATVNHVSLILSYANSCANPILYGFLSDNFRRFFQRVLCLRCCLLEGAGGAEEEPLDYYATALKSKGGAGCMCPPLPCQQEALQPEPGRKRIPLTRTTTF
VALUE_KIND: Kd (nM)
Enter your answer as a number in nM; do not include the unit.

MOLECULE_SMILES: CN(CCC(=O)N1CCN(c2ccc(F)c(F)c2)CC1)CCC1c2ccccc2Oc2ccccc21
READOUT_UNIT: nM
Kd: 3390

Here's the next entry for you.
Form: molecule = `CN(CCC(=O)N1CCN(c2ccc3nonc3c2)CC1)CCC1c2ccccc2Oc2ccccc21` ; Kd = 1450

====

- EXPERIMENT_NOTES: Ratio of drug level in brain to plasma in mouse at 10 umol/kg, iv and 30 umol/kg, po
- Assay type: ADME, organism-based
VALUE_KIND: Kp

MOLECULE_SMILES: CN(CCC(=O)N1CCN(c2ccc(F)c(F)c2)CC1)CCC1c2ccccc2Oc2ccccc21
RESULT: > 1

// `CN(CCC(=O)N1CCN(c2ccc(F)c(F)c2)CC1)CCC1c2ccccc2-c2ccccc21.Cl` : Kp value = > 1

====

- TEST_SYSTEM: Somatostatin receptor type 1 (Rattus norvegicus)
- Sequence (P28646 whole entry): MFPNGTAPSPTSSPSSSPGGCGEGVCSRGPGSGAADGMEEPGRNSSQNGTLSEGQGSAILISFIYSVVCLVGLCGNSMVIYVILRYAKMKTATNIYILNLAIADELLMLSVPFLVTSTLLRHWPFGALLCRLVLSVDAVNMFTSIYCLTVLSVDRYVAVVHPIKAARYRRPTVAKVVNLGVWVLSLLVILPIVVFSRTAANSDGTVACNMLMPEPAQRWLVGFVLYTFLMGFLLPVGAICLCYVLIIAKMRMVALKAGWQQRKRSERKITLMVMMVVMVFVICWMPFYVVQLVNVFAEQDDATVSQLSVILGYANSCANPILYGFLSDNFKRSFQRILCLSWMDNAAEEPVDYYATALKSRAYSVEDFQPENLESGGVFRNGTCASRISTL
VALUE_KIND: Kd (nM)
Entry rule: numbers only, all in nM.

For orientation, consider the following solved cases.
MOLECULE_SMILES: CN(CCC(=O)N1CCN(c2ccc([N+](=O)[O-])cc2)CC1)CCC1c2ccccc2-c2ccccc21
READOUT_UNIT: nM
Kd: 0.708
//
MOLECULE_SMILES: CCN(CCC(=O)N1CCN(c2ccc([N+](=O)[O-])cc2)CC1)CCC1c2ccccc2-c2ccccc21
READOUT_UNIT: nM
Kd: 0.955
//
MOLECULE_SMILES: CN(CCC(=O)N1CCN(c2ccc([N+](=O)[O-])cc2)CC1)CCc1ccc2ccccc2c1
READOUT_UNIT: nM
Kd: 275

Short answer for `CN(CCC(=O)N1CCN(c2ccc([N+](=O)[O-])cc2)CC1)CCC1c2ccccc2Oc2ccccc21` : Kd was 0.891
